Tested target: NanoBiT® HiBiT non-luminescent peptide and LgBiT non-luminescent polypeptide (HiBiT/LgBiT bioluminescent complex) (Oplophorus gracilirostris, UniProt Q9GV45, A31E/A60N/A81I/C191F/D135N/E192K/F58L/F95D/G184S/G42A/G62A/G78A/G94A/G98A/H120P/I103V/I117V/I134L/K70R/L176M/L195S/L54V/L73R/L99Q/M102E/N171T/N193K/P142E/Q151K/Q38E/Q45L/T186S/V71I/Y165I)
Construct: fused on or other part: N-terminal Met-Val on LgBiT in place of the signal peptide (residues 1-27); The chain is split between residues 184 and 185 into LgBiT and the 11-residue HiBiT peptide (residues 185-195); C-terminal A196 is absent
Sequence (Q9GV45 other isoform, or with tags, fused parts or gaps with the stated changes): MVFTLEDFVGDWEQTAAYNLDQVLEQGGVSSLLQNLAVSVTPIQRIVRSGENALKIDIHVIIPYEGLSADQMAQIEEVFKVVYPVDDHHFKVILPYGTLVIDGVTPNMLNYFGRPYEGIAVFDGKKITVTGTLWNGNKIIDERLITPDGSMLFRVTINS
Measurement protocol: biochemical
Ranges used to classify IC50: lower bin (below 0.06 µM), middle bin (0.06 µM to below 0.4 µM), upper bin (0.4 µM or more)

// below: answered molecules
> print(dat)
                                   molecule  group.label
1  Cc1ccc(S(=O)(=O)Nc2ccc(C#N)cc2C(=O)Nc2cc3ccccc3s2)cc1 [HL-0071]    lower bin
2  Cc1ccc(NC(=O)c2ccccc2NS(=O)(=O)c2cccc(-c3ccccc3)c2)cc1 [JRW-1248]   middle bin
3  COc1ccc(S(=O)(=O)Nc2ccccc2C(=O)Nc2ccc(C)cc2)cc1 [JRW-1285]   middle bin
4  Cc1ccc(S(=O)(=O)Nc2ccccc2C(=O)Nc2sccc2C#N)cc1 [JRW-1006]    upper bin
5  Cc1ccc(S(=O)(=O)Nc2ccccc2C(=O)N[C@H]2CC[C@H](C(=O)O)CC2)cc1 [HL-0012]    upper bin

Category lookup for the molecule O=Cc1ccc(S(=O)(=O)Nc2ccccc2C(=O)Nc2cc3ccccc3s2)cc1 [HL-0038]
lower bin

Category lookup for the molecule Cc1ccc(S(=O)(=O)Nc2ccccc2C(=O)Nc2cc3ccccc3s2)cc1 [HL-0005]
lower bin

Where do these numbers come from? They come from patent US12065421B2.
